target: hM4 receptors (Homo sapiens, UniProt P08173); construct: expressed in transfected cells; host or cells: CHO cells; assay: Human M4 PAM pERK assay; assay type: cell-based; conditions: CHO cells expressing hM4; EC20 of acetylcholine (10 nM final); TR-FRET
Sequence (P08173 whole entry): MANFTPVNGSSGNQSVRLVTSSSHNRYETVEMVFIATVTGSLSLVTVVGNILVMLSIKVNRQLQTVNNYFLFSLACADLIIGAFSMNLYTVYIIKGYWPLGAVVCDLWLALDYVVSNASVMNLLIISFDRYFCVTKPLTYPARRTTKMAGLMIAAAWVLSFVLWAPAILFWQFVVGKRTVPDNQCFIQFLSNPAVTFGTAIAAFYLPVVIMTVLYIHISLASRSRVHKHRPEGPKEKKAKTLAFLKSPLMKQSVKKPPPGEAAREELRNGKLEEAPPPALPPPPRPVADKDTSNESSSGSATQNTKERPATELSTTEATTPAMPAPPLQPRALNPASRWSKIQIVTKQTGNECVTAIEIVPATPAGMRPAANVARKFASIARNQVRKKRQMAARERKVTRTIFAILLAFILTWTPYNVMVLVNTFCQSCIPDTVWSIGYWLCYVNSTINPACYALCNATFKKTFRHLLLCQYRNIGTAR
pEC50: −log10 of the molar value.
measuredAttribute: pEC50

COc1nc(C)nc2c1C(C)N(C(=O)CC1CN(c3ccc(C#N)cc3)C1)C2 (single isomer, unassigned) [Compound I-57]    ≤ 5.70
Cc1nc2c(c(NC3CC3)n1)CN(C(=O)CC1CN(c3cccnc3)C1)C2    5.70 to 6.30
Cc1nc2c(c(OC3CC3)n1)CN(C(=O)CC1CN(c3ccnc(C(F)(F)F)c3)C1)C2    ≤ 5.70
Cc1nc2c(c(OCC3CC3)n1)CN(C(=O)CC1CN(c3ccnc(C(F)(F)F)c3)C1)C2    ≤ 5.70
COc1nc(OC(F)F)nc2c1CN(C(=O)CC1CN(c3cccnc3)C1)C2    5.70 to 6.30
COc1nc(C2CC2)nc2c1CN(C(=O)CC1CN(c3ccnc(C(F)(F)F)c3)C1)C2    5.70 to 6.30
COc1nc(C#N)nc2c1C(C)N(C(=O)CC1CN(c3ccc(C4CC4)c(F)c3)C1)C2 (single isomer, unassigned) [Compound I-21]    ≤ 5.70
COc1nc(C)nc2c1CN(C(=O)CC1CN(c3ccnc(C(F)(F)F)c3)C1)C2C (racemic) [Compound I-61]    5.70 to 6.30
COc1nc2c(c(OC(F)F)n1)CN(C(=O)CC1CN(c3cccnc3)C1)C2    ≤ 5.70
COc1nc(C#N)nc2c1C(C)N(C(=O)CC1CN(c3cnnc(C(F)(F)F)c3)C1)C2 (single isomer, unassigned) [Compound I-24]    ≤ 5.70
COc1nc(C#N)nc2c1C(C)N(C(=O)CC1CN(c3ccnc(C(F)(F)F)c3)C1C)C2 (single isomer, unassigned) [Compound I-38]    6.30 to 7.00
COc1nc(C#N)nc2c1C(C)N(C(=O)CC1CN(c3ccnc(C(F)(F)F)c3)C1C)C2 (single isomer, unassigned) [Compound I-39]    5.70 to 6.30
CCOc1nc(C)nc2c1CN(C(=O)CC1CN(c3ccnc(C(F)(F)F)c3)C1)C2    5.70 to 6.30
COc1cc(N2CC(CC(=O)N3Cc4nc(C#N)nc(OC)c4C3C)C2)ccn1 (single isomer, unassigned) [Compound I-18]    ≥ 7.00
COc1nc(C#N)nc2c1C(C)N(C(=O)CC1CN(c3cncnc3)C1)C2 (single isomer, unassigned) [Compound I-27]    ≥ 7.00
COc1nc(C#N)nc2c1C(C)N(C(=O)CC1CN(c3cccc(F)c3F)C1)C2 (single isomer, unassigned) [Compound I-20]    ≤ 5.70
COc1nc(C#N)nc2c1C(C)N(C(=O)CC1CN(c3cc(F)cc(F)c3)C1)C2 (single isomer, unassigned) [Compound I-9]    ≥ 7.00
COc1nc(C#N)nc2c1C(C)N(C(=O)CC1CN(c3cccnc3)C1)C2 (single isomer, unassigned) [Compound I-8]    ≥ 7.00
COc1nc(C)nc2c1CN(C(=O)CC1CN(c3ccnc(C(F)(F)F)c3)C1)C2    6.30 to 7.00
COc1nc2c(c(OC)n1)C(C)N(C(=O)CC1CN(c3ccc(C#N)cc3)C1)C2 (single isomer, unassigned) [Compound I-66]    ≥ 7.00
COc1nc(C#N)nc2c1CN(C(=O)CC1CN(c3ccnc(C(F)(F)F)c3)C1)C2    ≥ 7.00
COc1nc(C)nc2c1CN(C(=O)CC1CN(c3ncns3)C1)C2    6.30 to 7.00
COc1nc(OC)c2c(n1)C(C)N(C(=O)CC1CN(c3ccnc(C(F)(F)F)c3)C1)C2 (single isomer, unassigned) [Compound I-70]    5.70 to 6.30
COc1nc(C#N)nc2c1C(C)N(C(=O)CC1CN(c3ccc(C4CC4)nc3)C1)C2 (single isomer, unassigned) [Compound I-32]    ≤ 5.70
COc1nc(C#N)nc2c1C(C)N(C(=O)CC1CN(c3ccncc3F)C1)C2 (single isomer, unassigned)    6.30 to 7.00
COc1nc(C#N)nc2c1C(C)N(C(=O)CC1CN(c3cnnc(C(F)(F)F)c3)C1)C2 (single isomer, unassigned) [Compound I-25]    6.30 to 7.00
COc1nc(C#N)nc2c1C(C)N(C(=O)CC1CN(c3cncnc3)C1)C2 (single isomer, unassigned) [Compound I-26]    5.70 to 6.30
COc1nc(C)nc2c1C(C)N(C(=O)CC1CN(c3cccc(C#N)c3)C1)C2 (single isomer, unassigned) [Compound I-54]    ≤ 5.70
